B1: Ankyrin-2, residues 3571 to 3650; numbered along this chain, Q01484 (parent)
chain: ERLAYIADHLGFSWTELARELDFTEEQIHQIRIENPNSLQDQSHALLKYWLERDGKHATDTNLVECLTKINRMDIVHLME

Variants of: B1
experimentSummary: abundance fitness (aPCA) (normalised: wild type 0, dead -1); higher = more abundant; growth selection in yeast, the domain comes from the species named
details: Homo sapiens
Hi, to clarify the labels: Criterion met covers abundance fitness from -0.07 upward, Criterion not met covers anything below -0.07.

>  <variantSpec>
L3F

>  <assignedClass>
Criterion met

$$$$
>  <variantSpec>
S38Q

>  <assignedClass>
Criterion not met

$$$$
>  <variantSpec>
L51Y

>  <assignedClass>
Criterion met

$$$$
>  <variantSpec>
F23A

>  <assignedClass>
Criterion not met

$$$$
>  <variantSpec>
R19D

>  <assignedClass>
Criterion met

$$$$
>  <variantSpec>
G11N

>  <assignedClass>
Criterion met

$$$$
>  <variantSpec>
H29K

>  <assignedClass>
Criterion met

$$$$
>  <variantSpec>
L10D

>  <assignedClass>
Criterion not met

$$$$
>  <variantSpec>
Q30A

>  <assignedClass>
Criterion not met

$$$$
>  <variantSpec>
Q42G

>  <assignedClass>
Criterion not met

$$$$

Task: Assess whether reported abundance fitness for E52K sits at -0.07 or higher.
Output: Criterion met

Task: Test whether the variant F23C records abundance fitness of -0.07 or higher.
Output: Criterion not met

Task: Hello, I need to know if R32D has measured abundance fitness not below -0.07. Thanks!
Output: Criterion not met

Task: Could you verify whether the entry A4E shows abundance fitness of no less than -0.07?
Output: Criterion met

Source: the Human Domainome abundance scans (Beltran et al. 2025)
